Source listed as ChEMBL document CHEMBL5120874.

# MIC per entry
System: Escherichia coli
Assay: Antibacterial activity against Escherichia coli EMBLC-1 assessed as inhibition of bacterial growth by serial dilution method
Type: functional
assay endpoint: MIC

> print(dat)
                                  mol.smiles  recorded.result
 1  Cc1cc(CO)cc2ccc(CO)c(/C=C/C=C/C(=O)O)c12       > 64 µg/mL
 2  CO[C@]1(C)C=C[C@H]2C[C@@H](CO)C[C@@H](C)[C@@H]2[C@H]1/C=C/C=C/C(=O)O       > 64 µg/mL
 3  C[C@@H]1C[C@@H]2C=C[C@H](C)[C@H](/C=C/C=C/C(=O)O)[C@H]2[C@@](C)(O)C1         64 µg/mL
 4  Cc1cc(CO)cc2ccc(CO)c(/C=C\C=C\C(=O)O)c12       > 64 µg/mL
 5   Cc1cc(C)c2c(/C=C/C=C/C(=O)O)c(CO)ccc2c1       > 64 µg/mL
 6  C[C@H]1C=C[C@H]2C[C@@H](CO)C[C@](C)(O)[C@@H]2[C@H]1/C=C/C=C/C(=O)O       > 64 µg/mL
 7  C[C@@H]1C[C@H](CO)C[C@@H]2C=C[C@@](C)(O)[C@](O)(/C=C/C=C/C(=O)O)[C@@H]12       > 64 µg/mL
 8  Cc1ccc2c(c1/C=C/C=C/C(=O)O)[C@H](C)C[C@@](C)(O)C2       > 64 µg/mL
 9  Cc1ccc2c(c1/C=C/C=C/C(=O)O)[C@H](C)C[C@@](C)(O)C2=O         64 µg/mL
10  Cc1ccc2c(c1/C=C/C=C/C(=O)O)[C@H](C)C[C@H](CO)C2       > 64 µg/mL
